- target_entity: ENPP-1 ECD (Homo sapiens (Human))
- experiment: Assay 2: inhibition of ENPP1 hydrolysis of 2′,3′-cGAMP (AMP-Glo, […] enzyme)
- condition_set: Assay 2 (KI), inhibition of ENPP1 hydrolysis of 2′,3′-cGAMP; no unit in Table 18 (Table 17 legend for this assay uses nM)
endpoint: Ki (nM)

1) CCOc1cccc2c(N3CCC(CS(C)(=N)=O)CC3)c(C#N)cnc12 (centres unmarked) [Compound 197]    0.04

A = COc1ccc2c(-c3ccc(CCS(C)(=N)=O)cc3)ccnc2c1 (centres unmarked) [Compound 98]
B = COc1ccc2c(Oc3ccc(S(C)(=N)=O)cc3)ncnc2c1 (centres unmarked) [Compound 167]
Task item: Please indicate which has the smaller reported Ki: A , or B . Choose, then provide that item's label.
Reply: B

P = COc1cc2nccc(N3CCC(CNS(C)(=N)=O)CC3)c2cc1Cl (centres unmarked) [Compound 157]
Q = COCCS(=N)(=O)c1ccc(Oc2ccnc3cc(OC)ccc23)cc1 (centres unmarked) [Compound 122]
Task item: Sorting by Ki in descending order, would P or Q appear first? Choose, then provide that item's label.
Reply: P
(P: 2.7 nM, Q: 1.6 nM)

====

- target_entity: ENPP-1 ECD (Homo sapiens (Human))
- experiment: Assay 1: inhibition of ENPP1 hydrolysis of 2′,3′-cGAMP (AMP-Glo, […] enzyme)
- condition_set: Assay 1 (IC50), inhibition of ENPP1 hydrolysis of 2′,3′-cGAMP; no unit in Table 18 (Table 17 legend for this assay uses nM)
endpoint: IC50 (nM)

1. COc1cc2nccc(Oc3ccc([S@](C)(=N)=O)cc3)c2cc1OC [Compound 1R]    3200

A = COc1ccc2c(Oc3ccc(S(C)(=N)=O)cc3)ccnc2c1 (stereo not shown) [Compound 80]
B = COc1cccc2c(OCc3ccc(S(C)(=N)=O)cc3)ccnc12 (stereo not shown) [Compound 134]
C = COc1cc2nccc(N3CCC(CCS(C)(=N)=O)CC3)c2cc1Cl (stereo not shown) [Compound 141]
Task item: List the 3 entries from lowest IC50 to highest IC50 value. Please reply with the labels ordered as requested. Many thanks.
Reply: C, A, B
(C: 2.1 nM, A: 6.2 nM, B: 1100 nM)

a = COc1ccc2c(Oc3ccc(CS(C)(=N)=O)cc3)ccnc2c1 (stereo not shown) [Compound 79]
b = COc1cccc2c(Oc3ccc(S(C)(=N)=O)cc3)ncnc12 (stereo not shown) [Compound 84]
Task item: Sorting by IC50 in descending order, would a or b appear first? Choose, then provide that item's label.
Reply: b

P = COc1ccc2c(-c3ccc(CS(C)(=N)=O)cc3)ccnc2c1 (stereo not shown) [Compound 88]
Q = COc1cc2nccc(Oc3ccc(S(C)(=N)=O)cc3)c2cc1OC (stereo not shown) [Compound 1]
R = COc1ccc2c(-c3ccc4c(c3)CN(S(C)(=N)=O)CC4)ccnc2c1 (stereo not shown) [Compound 52]
Task item: Returns the items ordered by IC50, from maximum to minimum. Please reply with the labels ordered as requested. Many thanks.
Reply: P, R, Q

====

- target_entity: UniProtKB P22413
- experiment: Assay 2: inhibition of ENPP1 hydrolysis of 2′,3′-cGAMP (AMP-Glo, […] enzyme)
- condition_set: Assay 2 (KI), ENPP1 hydrolysis of 2′,3′-cGAMP, AMP-Glo, […] ENPP-1, 24 μM cGAMP
pKi: −log10 of the molar value.
// values below are reported pKi

As a guide, the following entries are already answered.
1) COc1cc2nccc(Oc3ccc(S(C)(=N)=O)cc3)c2cc1OC (stereo not shown) [Compound 1]    6.52 to 8.52
2) CCS(=N)(=O)N1CCC2(CCN(c3ncnc4cc(OC)c(OC)cc34)CC2)C1 (stereo not shown) [Compound 159]    > 8.52
3) CS(=N)(=O)CCC1CCN(c2ccnc3ccccc23)CC1 (stereo not shown) [Compound 149]    < 6.52

Moving on to the next compound.
What the record says about COc1cc2nccc(Oc3ccc([S@@](C)(=N)=O)cc3)c2cc1OC [Compound 1S] : pKi is > 8.52

====

- target_entity: ENPP-1 ECD (Homo sapiens (Human))
- experiment: Assay 2: inhibition of ENPP1 hydrolysis of 2′,3′-cGAMP (AMP-Glo, […] enzyme)
- condition_set: Assay 2 (KI), inhibition of ENPP1 hydrolysis of 2′,3′-cGAMP; no unit in Table 18 (Table 17 legend for this assay uses nM)
endpoint: Ki (nM)

As a guide, the following entries are already answered.
1. COc1cc2nccc(N3CCC4(CC3)CCN(S(C)(=N)=O)C4)c2cc1Cl (stereo not drawn)    0.03
2. COc1cc2ncnc(N3CCC4(CC3)CCN(S(C)(=N)=O)C4)c2cc1F (stereo not drawn)    0.019
3. COc1cc2ncnc(N3CC4(CC(CS(C)(=N)=O)C4)C3)c2cc1OC (stereo not drawn)    0.028
4. COc1ccc2c(Oc3ccc(S(=N)(=O)C4CC4)cc3)ccnc2c1 (stereo not drawn)    0.34
5. CCS(=N)(=O)c1ccc(Oc2ccnc3cc(OC)ccc23)cc1 (stereo not drawn)    1.3
6. COc1cc2nccc(N3CCC4(CC3)CCN(S(C)(=N)=O)C4)c2cc1OC (stereo not drawn)    0.021

I = COc1cc2nc(C)nc(N3CCC4(CC3)CCN(S(C)(=N)=O)C4)c2cc1OC (stereo not drawn)
II = COc1cccc2c(N3CCC(O)(CS(=N)(=O)C4CCC4)CC3)ncnc12 (stereo not drawn)
Task item: Please indicate which has the smaller reported Ki: I , or II . Choose, then provide that item's label.
Reply: I
(I: 0.058 nM, II: 0.34 nM)

====

- target_entity: ENPP1 on MDA-MB-231 cells (Homo sapiens (Human))
- Sequence (P22413 whole entry): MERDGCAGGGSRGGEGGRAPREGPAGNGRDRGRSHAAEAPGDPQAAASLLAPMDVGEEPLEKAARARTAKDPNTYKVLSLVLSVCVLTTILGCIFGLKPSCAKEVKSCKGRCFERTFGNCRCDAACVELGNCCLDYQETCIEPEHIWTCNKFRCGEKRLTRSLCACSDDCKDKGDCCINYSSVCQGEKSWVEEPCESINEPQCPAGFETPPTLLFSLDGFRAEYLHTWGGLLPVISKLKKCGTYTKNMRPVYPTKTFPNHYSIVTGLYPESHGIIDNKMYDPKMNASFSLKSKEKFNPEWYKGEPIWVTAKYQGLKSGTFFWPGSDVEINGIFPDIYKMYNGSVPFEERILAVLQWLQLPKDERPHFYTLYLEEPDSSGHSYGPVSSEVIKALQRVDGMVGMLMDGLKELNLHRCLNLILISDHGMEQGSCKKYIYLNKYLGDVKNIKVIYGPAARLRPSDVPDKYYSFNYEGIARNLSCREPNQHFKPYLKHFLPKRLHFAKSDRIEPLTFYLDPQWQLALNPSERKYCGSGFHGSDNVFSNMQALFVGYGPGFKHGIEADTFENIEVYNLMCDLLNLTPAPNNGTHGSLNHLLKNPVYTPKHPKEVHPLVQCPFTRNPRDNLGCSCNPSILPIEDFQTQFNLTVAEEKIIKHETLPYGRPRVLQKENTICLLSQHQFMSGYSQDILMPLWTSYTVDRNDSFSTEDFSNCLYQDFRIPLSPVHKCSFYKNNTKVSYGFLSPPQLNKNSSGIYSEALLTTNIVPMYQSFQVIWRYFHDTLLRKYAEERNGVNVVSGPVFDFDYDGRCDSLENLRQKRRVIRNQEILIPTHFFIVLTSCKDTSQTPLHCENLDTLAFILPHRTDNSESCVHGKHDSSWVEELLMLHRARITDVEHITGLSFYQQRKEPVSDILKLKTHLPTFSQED
- experiment: Assay 3: inhibition of ENPP1 hydrolysis of AMP p-nitrophenyl ester on MDA-MB-231 cells
endpoint: Ki (nM)

As a guide, the following entries are already answered.
1) COc1cc2ncc(C#N)c(N3CCC(CCS(C)(=N)=O)CC3)c2cc1Cl (stereo not shown)    26
2) CCOc1cccc2c(N3CCC(CS(C)(=N)=O)CC3)ncnc12 (stereo not shown)    4.4
3) COc1cc2nccc(Oc3ccc(S(C)(=N)=O)cc3)c2cc1F (stereo not shown)    19
4) COc1cccc2c(N3CCC(CS(C)(=N)=O)CC3)ncnc12 (stereo not shown)    15
5) COc1cc2ncc(C#N)c(Oc3ccc(S(C)(=N)=O)cc3)c2cc1F (stereo not shown)    110
6) COc1ccc2c(OCc3ccc(S(C)(=N)=O)cc3F)ccnc2c1 (stereo not shown)    110
7) COc1cc2nncc(Oc3ccc(S(C)(=N)=O)cc3)c2cc1OC (stereo not shown)    380
8) COc1ccc2c(Oc3ccc(S(C)(=N)=O)cc3)cc(C)nc2c1 (stereo not shown)    30

P = COc1ccc2c(Oc3ccc(S(=N)(=O)CC4CC4)cc3)ccnc2c1 (stereo not shown)
Q = COc1ccc2c(Oc3ccc(S(=N)(=O)C4CC4)cc3)ccnc2c1 (stereo not shown)
R = COc1cc2nccc(OCc3cccc(S(C)(=N)=O)c3)c2cc1F (stereo not shown)
S = COc1ccc2c(Oc3ccc(S(C)(=N)=O)nc3)ccnc2c1 (stereo not shown)
Task item: Returns the items ordered by Ki, from maximum to minimum. Please reply with the labels ordered as requested. Many thanks.
Reply: S, P, Q, R
(S: 300 nM, P: 60 nM, Q: 23 nM, R: 1.5 nM)

====

- target_entity: ENPP-1 ECD (Homo sapiens (Human), UniProt P22413)
- Sequence (P22413 98-925): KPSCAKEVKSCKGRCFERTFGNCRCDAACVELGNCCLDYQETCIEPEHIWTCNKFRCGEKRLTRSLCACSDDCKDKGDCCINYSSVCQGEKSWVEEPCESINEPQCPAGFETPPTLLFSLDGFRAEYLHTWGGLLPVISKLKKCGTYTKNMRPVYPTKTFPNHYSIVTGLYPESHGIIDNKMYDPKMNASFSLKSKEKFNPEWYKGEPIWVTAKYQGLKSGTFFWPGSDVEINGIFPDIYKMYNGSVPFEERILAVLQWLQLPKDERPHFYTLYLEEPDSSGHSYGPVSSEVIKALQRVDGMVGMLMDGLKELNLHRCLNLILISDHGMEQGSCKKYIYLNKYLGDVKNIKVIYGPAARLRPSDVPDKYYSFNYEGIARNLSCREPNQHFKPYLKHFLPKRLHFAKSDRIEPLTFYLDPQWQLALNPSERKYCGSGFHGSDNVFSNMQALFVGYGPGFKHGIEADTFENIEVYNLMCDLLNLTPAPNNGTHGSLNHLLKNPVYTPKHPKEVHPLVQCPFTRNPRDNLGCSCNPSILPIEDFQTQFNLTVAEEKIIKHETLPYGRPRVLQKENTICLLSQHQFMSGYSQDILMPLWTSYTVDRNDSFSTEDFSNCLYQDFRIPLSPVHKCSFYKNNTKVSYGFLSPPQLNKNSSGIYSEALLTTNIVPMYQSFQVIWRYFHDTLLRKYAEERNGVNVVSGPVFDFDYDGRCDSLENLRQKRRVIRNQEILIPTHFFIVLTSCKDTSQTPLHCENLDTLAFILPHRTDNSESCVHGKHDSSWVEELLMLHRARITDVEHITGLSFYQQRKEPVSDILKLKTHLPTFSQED
- experiment: Assay 1: inhibition of ENPP1 hydrolysis of 2′,3′-cGAMP (AMP-Glo, […] enzyme)
- condition_set: read-out: Assay 1 (IC50); ENPP1 hydrolysis of 2′,3′-cGAMP, AMP-Glo
// values below are reported IC50

As a guide, the following entries are already answered.
1) COc1cc2nccc(Oc3ccc(S(=N)(=O)C4CC4)cc3)c2cc1F (centres unmarked)    < 10 nM
2) COc1ccc2c(Oc3ccc([S@@](=N)(=O)C4CC4)cc3)ccnc2c1 [Compound 60a]    < 10 nM
3) COc1cc2ncnc(N3CCC(CCS(C)(=N)=O)CC3)c2cc1OC (centres unmarked)    < 10 nM
4) COc1ccc2c(OCc3ccc([S@@](C)(=N)=O)cc3)ccnc2c1 [Compound 75a]    < 10 nM
5) COc1ccc2c(N3CCC4(CC3)CCN([S@](C)(=N)=O)C4)ccnc2c1 [Compound 55a]    < 10 nM
6) CS(=N)(=O)CCC1CCN(c2ccnc3ccccc23)CC1 (centres unmarked)    > 1000 nM
7) COc1ccc2c(C(=O)N3CCS(=N)(=O)CC3)ccnc2c1    > 1000 nM
8) COc1cccc2c(-c3ccc(CCS(C)(=N)=O)cc3)ncnc12 (centres unmarked)    > 1000 nM

Moving on to the next molecule.
// assay ENPP-1 ECD (Homo sapiens (Human), UniProt P22413), entry COc1cc2nccc(Oc3ccc([S@@](C)(=N)=O)cc3)c2cc1F [Compound 114b] , IC50 value = 10 to 1000 nM

Data origin: patent US11780849B2
